Tested on: MALME-3M melanoma
Assay: NCI-60 one-dose screen, 48 h (100 = growth as untreated, 0 = no growth, -100 = all killed)
Details: 10 µM unless noted
About 83,000 compounds went through this panel and 20% of them were active in at least one assay; those are over-represented in the sample as a whole.
Lab note: compare growth against -20%. Equal or greater, write 1.0. Smaller, write 0.0.

Cn1cnc2c(F)c(Nc3ccc(Br)cc3Cl)c(C(=O)NOCCO)cc21
1.0

Reported growth at or above -20%? C=CC(=O)Nc1cc2c(Nc3ccc(F)c(Cl)c3)ncnc2cc1C#CC(C)(C)N1CCN(C)CC1
0.0

Here is the next compound: NC[C@@](O)(c1ccc(Cl)cc1)c1ccc(-c2cn[nH]c2)cc1
0.0

====

System: MDA-MB-435 melanoma
Assay: NCI-60 one-dose screen, 48 h
Conditions: 10 µM unless noted
The panel holds about 83,000 compounds, 20% with a hit somewhere; the sample as a whole holds those more often. Calls of active or inactive are those of the source. Rule for the calls: active = growth percent below 10; inactive = the rest.
Could you please pick one outcome from this set? label 1 (active), label 0 (inactive)

Consider the following illustrative entries.
COc1ccc(Br)cc1NC(=O)Nc1cccc2c1ccn2Cc1ccnc(N)c1
label 0
Cc1cc(N(CCNc2ccnc3cc(Cl)ccc23)Cc2cccs2)nc(Cl)n1
label 1
CCCCCCCC(=O)SCC/C=C/[C@@H]1CC(=O)NCc2cccc(n2)C2=N[C@@](C)(CS2)C(=O)N[C@@H](C(C)C)C(=O)N1
label 0
O=C1CC(c2ccc(Cl)cc2)c2ncn(-c3cccc(Cl)c3)c2N1 (stereo unspecified)
label 1
O=C(Cc1ccc(/C=C/C(=O)c2ncc[nH]2)cc1)Nc1ccc(Br)cc1
label 0

Record lookup: outcome of this test for COc1cc(Nc2ncc3c(n2)-c2ccc(Cl)cc2C(c2c(F)cccc2OC)=NC3)ccc1C(=O)O ?
label 0

====

Test system: NCI-H460 lung
Assay: NCI-60 one-dose screen, 48 h (100 = growth as untreated, 0 = no growth, -100 = all killed)
Conditions: 10 µM unless noted
Compounds without any hit were thinned out: in the full panel of roughly 83,000, 20% have a hit.
# maps each entry to its growth
Express your answer in %, writing the number without its unit.

C#Cc1cccc(Nc2ncnc3cc(OCCOC)c(OCCOC)cc23)c1
55.8
CCCCCCCCCCCC[n+]1ccccc1
3.69

Need growth, item COc1cnc2c(c1)C(=O)c1c-2n(CCCn2ccnc2)c(=O)c2cc(Cl)ccc12
1.24

Here is the next molecule: NC1(c2ccc(-c3nc4ccn5c(=O)[nH]nc5c4cc3-c3ccccc3)cc2)CCC1
23.6

Here is the next molecule: CS(=O)(=O)N1CCN(Cc2cc3nc(-c4cccc5[nH]ncc45)nc(N4CCOCC4)c3s2)CC1
23.2

Here is the next molecule: CNC(=O)c1cc(Oc2ccc(NC(=O)Nc3cc(C(C)(C)C)nn3-c3ccc4ncccc4c3)c(F)c2)ccn1
-40.8

Here is the next molecule: NN1C(=O)CSC1=S
105

Here is the next molecule: COc1ccc(Cc2cc(-c3ccccc3C)n[nH]c2=O)cc1
105

Here is the next molecule: Nc1c2c(c(O)c3c1=C(CO)C=N3)=NCCS2=O (configuration not stated)
-61.7

Here is the next molecule: COc1cnc2c(c1)C(=O)c1c-2n(CCCN2CCC(O)CC2)c(=O)c2cc(Cl)ccc12
-60.8

Here is the next molecule: COc1ccc(C2CC(=O)c3c(O)c(OC)c(OC)c(OC)c3O2)cc1O (configuration not stated)
3.01

Here is the next molecule: CC1(O)CC(c2nc(-c3ccc4ccc(-c5ccccc5)nc4c3)c3c(N)nccn23)C1 (configuration not stated)
25.2
